Provide the recorded residual activity for the entries that follow.
STUDY_SYSTEM: CaMK1 (human)
TEST_DETAILS: radiometric filter-binding kinase assay
RUN_PARAMETERS: compound 1.0 µM
Numbers only, in %.

Recorded results for 3 compounds are shown here.
INSERT INTO assay_data (compound, study_system, unit_label, observed_value) VALUES
  ('Cc1cccc(-c2nn(C(=S)Nc3ccccc3)cc2-c2ccnc3ccccc23)n1', 'CaMK1 (human)', '%', 107),
  ('CN1C(=O)[C@@H](Cc2c[nH]c3ccccc23)NC1=S', 'CaMK1 (human)', '%', 94),
  ('NC(=O)c1ccc(-c2ccc(Oc3cncc4sc(-c5nn[nH]n5)cc34)cc2)cc1', 'CaMK1 (human)', '%', 105);

Would you mind giving residual activity for every compound in the list below?
1. CNC(=O)C1[C@H]2O[C@@](C)([C@@H]1N)n1c3ccccc3c3c4c(c5c6ccccc6n2c5c31)C(=O)NC4 (stereo not given in full)
2. Cc1cc(NC(=O)c2cccc(NC(=O)/C=C/CN(C)C)c2)ccc1Nc1nccc(-c2cccnc2)n1

Result:
4
86

----------
STUDY_SYSTEM: NEK6 (human) (UniProt Q9HC98)
Sequence (Q9HC98 whole entry, looked up): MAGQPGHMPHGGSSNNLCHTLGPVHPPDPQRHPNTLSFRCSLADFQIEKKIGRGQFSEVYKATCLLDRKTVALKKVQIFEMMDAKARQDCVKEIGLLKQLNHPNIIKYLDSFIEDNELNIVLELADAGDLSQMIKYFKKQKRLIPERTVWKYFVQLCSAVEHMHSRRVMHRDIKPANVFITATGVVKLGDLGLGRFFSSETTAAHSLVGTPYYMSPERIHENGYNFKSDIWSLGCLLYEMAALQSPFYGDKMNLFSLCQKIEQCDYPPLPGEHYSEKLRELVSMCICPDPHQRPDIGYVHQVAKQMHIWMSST
TEST_DETAILS: radiometric filter-binding kinase assay
RUN_PARAMETERS: compound 1.0 µM
PROPERTY_MEASURED: residual activity (%)
Answers are plain numbers, in %.

Recorded results for 2 compounds are shown here.
INSERT INTO measurements (compound, study_system, unit_label, observed_value) VALUES
  ('Cc1cc(SCc2sc(-c3ccc(C(F)(F)F)cc3)nc2C)ccc1OCC(=O)O', 'NEK6 (human) (UniProt Q9HC98)', '%', 101),
  ('CNC(=O)C1[C@H]2O[C@@](C)([C@@H]1N)n1c3ccccc3c3c4c(c5c6ccccc6n2c5c31)C(=O)NC4 (stereo not given in full)', 'NEK6 (human) (UniProt Q9HC98)', '%', 72);

Would you mind giving residual activity for every compound in the list below?
1. Cc1cccc(Nc2nn(C)c3ncnc(N)c23)c1
2. CCn1c(-c2nonc2N)nc2cncc(CNC3CCNCC3)c21
3. CCNc1nc(Nc2cc(F)c(C(=O)N3CCOCC3)cc2OC)ncc1C(F)(F)F
4. COc1cc(C(=O)N2CCOCC2)c(F)cc1Nc1ncc(C(F)(F)F)c(NC2CC2)n1
5. Cc1ccc(-c2ccc3c(ccc4sc5c(c43)NC[C@@H](C)NC5=O)n2)cn1

Result:
[73, 101, 103, 112, 96]

Would you mind giving residual activity for every compound in the list below?
1. Cn1c(=O)c2c(ncn2C)n(C)c1=O
2. Oc1ccc2ccccc2c1SSc1c(O)ccc2ccccc12
3. CC(C)(C#N)c1ccc(N2C(=O)OCc3cnc4ccc(-c5cnc6ccccc6c5)cc4c32)cc1

Result:
[89, 34, 83]

----------
System: ROCK2 (rat)
TEST_DETAILS: radiometric filter-binding kinase assay
RUN_PARAMETERS: compound 1.0 µM; accession and sequence are those of the human protein
Could you please mark y for values of residual activity below 90% and n for values at or above it?

Solved entries (count: 3):
INSERT INTO assay_data (compound, discrete_label) VALUES
  ('O=C(O)c1cc(N=Nc2ccc(S(=O)(=O)Nc3ccccn3)cc2)ccc1O', 'n'),
  ('CNc1nc(-c2ccc3c(N)n[nH]c3c2)cc(N2C[C@@H](C(=O)NC3CCCCC3)CC[C@H]2C)n1', 'y'),
  ('NC(=O)c1cc2c(-c3cccc(-c4ccccc4)c3)cnc(N)c2s1', 'y');

Problem: Report whether reported residual activity is lower than 90% (strictly) for "Oc1ccc2ccccc2c1SSc1c(O)ccc2ccccc12"
Result: n

The reported measurements were obtained from the kinase profiling compilation of Christmann-Franck et al. (2016).
